Entry source: patent US20200392150A1

Tested on: MDA-MB-231
Assay Protocol: In vitro cell growth inhibition assay (MTT)
Type: cell-based, human
Test Conditions: MDA-MB-231 human breast cancer cell line, 48 h, MTT; read-out: IC50 MDA-MB-231
Value Type: pIC50
Kindly note that pIC50 refers to -log10 of the concentration in mol/L and answer with the value alone.

Would you please look over these solved cases?
>  <Molecule>
C=C1C(=O)N(c2cc(OC)c(OC)c(OC)c2)[C@H]1c1ccc(OC)c(N)c1 [Compound 41]

>  <pIC50>
7.40

$$$$
>  <Molecule>
CC[C@H]1C(=O)N(c2cc(OC)c(OC)c(OC)c2)[C@H]1c1ccc(OC)c(O)c1 [Compound 106]

>  <pIC50>
6.54

$$$$

Next item in the queue.
Task: pIC50 for C=C1C(=O)N(c2cc(OC)c(OC)c(OC)c2)[C@H]1c1cccc(O)c1 [Compound 85] ?
Output: 5.18
